Reported values of glycan array binding signal (z-score) for individual entries
- targetDesc: Fuc(a1-2)[GalNAc(a1-3)]Gal(b1-3)GlcNAc
- runDescription: glycan array binding signal (z-score within array); higher = stronger binding
- cond: glycan notation: IUPAC condensed, linker removed
About 410 targets per protein were measured; listed, in parts, are those with the strongest signals and a random draw of the rest.
The answer should be a number; do not append a unit.

These solved cases illustrate the format of a correct answer.
# binder, glycan array binding signal (z-score)
data = [
    ("MpAFP NterminalRI GFP (Marinomonas primoryensis) (protein) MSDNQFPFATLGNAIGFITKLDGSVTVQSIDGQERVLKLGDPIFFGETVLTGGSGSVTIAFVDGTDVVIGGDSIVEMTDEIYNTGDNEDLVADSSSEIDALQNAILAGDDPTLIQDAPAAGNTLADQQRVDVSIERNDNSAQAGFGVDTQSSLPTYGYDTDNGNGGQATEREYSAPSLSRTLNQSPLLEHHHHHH", -0.215),
    ("DrGal3 (Danio rerio) (protein) MDLSDALDAPPQQNNQQAGGPVWPGQPANPVWPGQPANPTWPGQPNQPAWPGQPNQQWPGQPGQPTAPGWPGPAPQTGPYGAPGQAPQVLTVPLDFPLQNGAYNKMLITINGEVKPNAKQFTVNLRRGNDIAFHINPRFSEGGKPVIVRNSMIGNNWGREERELPSFPFVPGKPFEMKILITDTEYKVAVNKSHLLEFKHRVFELNQITGLSIYNDVTLSTVNVETLQ", -0.212),
]

The record that follows has no glycan array binding signal (z-score) shown yet.
## Input Would you kindly share the measured glycan array binding signal (z-score) for rCnSL-proA (Clitocybe nebularis) (protein) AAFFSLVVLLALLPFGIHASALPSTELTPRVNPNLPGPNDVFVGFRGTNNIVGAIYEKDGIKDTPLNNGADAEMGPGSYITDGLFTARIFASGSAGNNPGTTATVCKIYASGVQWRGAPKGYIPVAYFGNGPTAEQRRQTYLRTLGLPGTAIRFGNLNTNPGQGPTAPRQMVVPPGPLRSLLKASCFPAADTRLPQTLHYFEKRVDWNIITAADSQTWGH ?
## Output 0.497
